tested on: Nakaseomyces glabratus; assay: Antimicrobial activity against Candida glabrata ATCC 90030 by CLSI method; type: functional
Reported Endpoint: MFC (µg/mL)
Quick note: give the figure in µg/mL, leave out the unit.

Endpoint output: MFC of `N#Cc1cccc(Sc2cc3ccccc3[n+](CCCCCC3CCCCC3)c2)c1.[I-]` . Value? 20

Repeat for the following compound: `[I-].c1ccc(Sc2cc3ccccc3[n+](CCCCCC3CCCCC3)c2)cc1` 20

Repeat for the following compound: `N#Cc1ccccc1Sc1cc2ccccc2[n+](CCCCCC2CCCCC2)c1.[I-]` 20

Repeat for the following compound: `FC(F)(F)c1ccccc1Sc1cc2ccccc2[n+](CCCCCC2CCCCC2)c1.[I-]` 10

Repeat for the following compound: `Fc1cccc(Sc2cc3ccccc3[n+](CCCCCC3CCCCC3)c2)c1.[I-]` 20

Repeat for the following compound: `Brc1ccccc1Sc1cc2ccccc2[n+](CCCCCC2CCCCC2)c1.[I-]` 10

Repeat for the following compound: `N#Cc1ccc(Sc2cc3ccccc3[n+](CCCCCC3CCCCC3)c2)cc1.[I-]` 20

Repeat for the following compound: `FC(F)(F)c1cccc(Sc2cc3ccccc3[n+](CCCCCC3CCCCC3)c2)c1.[I-]` 10
